- subjectOfTest: FGFR1 (UniProt P11362)
- Sequence (P11362 whole entry, looked up): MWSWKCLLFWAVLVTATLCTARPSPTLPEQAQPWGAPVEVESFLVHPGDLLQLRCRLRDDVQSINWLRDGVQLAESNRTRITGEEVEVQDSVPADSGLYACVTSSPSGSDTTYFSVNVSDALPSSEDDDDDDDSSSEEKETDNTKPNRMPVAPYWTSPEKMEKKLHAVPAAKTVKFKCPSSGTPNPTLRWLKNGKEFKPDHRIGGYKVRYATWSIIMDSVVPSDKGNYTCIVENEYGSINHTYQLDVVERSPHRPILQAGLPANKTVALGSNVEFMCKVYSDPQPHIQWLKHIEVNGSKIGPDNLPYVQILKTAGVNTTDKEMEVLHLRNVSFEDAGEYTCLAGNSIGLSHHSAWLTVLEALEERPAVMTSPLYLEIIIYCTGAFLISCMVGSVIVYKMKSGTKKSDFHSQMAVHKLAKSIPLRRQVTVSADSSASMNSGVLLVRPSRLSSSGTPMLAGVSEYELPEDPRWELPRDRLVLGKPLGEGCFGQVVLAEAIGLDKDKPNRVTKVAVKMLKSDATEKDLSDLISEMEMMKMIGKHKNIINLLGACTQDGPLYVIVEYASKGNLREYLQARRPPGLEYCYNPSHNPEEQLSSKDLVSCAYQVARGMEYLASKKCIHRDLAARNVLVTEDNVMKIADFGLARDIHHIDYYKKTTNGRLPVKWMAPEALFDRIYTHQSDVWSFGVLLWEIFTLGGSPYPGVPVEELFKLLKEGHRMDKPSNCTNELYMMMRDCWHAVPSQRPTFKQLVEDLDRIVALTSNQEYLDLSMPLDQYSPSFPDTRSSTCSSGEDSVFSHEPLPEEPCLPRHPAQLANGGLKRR
- testName: phosphorylation enrichment, bacterial display (enrichment ratio); higher = better substrate or ligand; peptides without Tyr show the background;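 also: 11-residue human phosphosite peptides and single-mutation variants displayed on the E. coli surface, counted by deep sequencing, each peptide's frequency after selection divided by its frequency in the unselected input library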;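 also: frequency after pTyr selection over input frequency; kinase dosed for 20-30% of maximal phosphorylation in three min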
Please map values of phosphorylation enrichment to classes as shown: lower segment = under 0.4, middle segment = from 0.4 up to 0.7, upper segment = 0.7 and over

QUERY: Could you tell me which band AEMTGYVMTRW [MAPK13_Y182_V184M] belongs to?
RESULT: middle segment

QUERY: Could you tell me which band PTKNDYWAMPA [WWOX_Y287_L291P] belongs to?
RESULT: upper segment

QUERY: Could you tell me which band GETEQYVGGGG [FAT4_Y4980_A4977T] belongs to?
RESULT: middle segment

QUERY: Could you tell me which band PDSVDYPKKGY [CTSK_Y121_R122P] belongs to?
RESULT: middle segment

QUERY: Could you tell me which band RDMMDYMLQGV [CYP21A2_Y259] belongs to?
RESULT: upper segment

QUERY: Could you tell me which band SEKIVYGHLDD [ACO2_Y71] belongs to?
RESULT: middle segment

QUERY: Could you tell me which band VHKEGYNKLNQ [ZNF676_Y98] belongs to?
RESULT: lower segment

QUERY: Could you tell me which band EKAEVYGSENE [RIOK2_Y348] belongs to?
RESULT: middle segment

Further cases:
QUERY: Could you tell me which band VSTKVYKRFPS [BEST1_Y148_A146K] belongs to?
RESULT: lower segment

QUERY: Could you tell me which band RVILRYVNPGT [LAMA3_Y791] belongs to?
RESULT: middle segment

QUERY: Could you tell me which band DNPAKYFILES [DPP10_Y512] belongs to?
RESULT: middle segment
